Reported melting point values for a set of molecules
Answer with a number only, understood to be in °C.

Examples from the recorded data:
{"columns": ["molecule", "unit info", "melting point"],
 "data": [
  ["OCc1ccccc1 [benzyl_alcohol]", "°C", -15],
  ["Cc1c[nH]c(=O)[nH]c1=O", "°C", 316],
  ["CC(=O)N(C1=NC(=O)/C(=C/c2cc(C)n(-c3ccccc3)c2C)S1)c1ccccc1", "°C", 238],
  ["OC1CCOc2ccccc21 (stereo unspecified)", "°C", 40]
]}

Problem: Tell me its melting point given `Nc1nc[nH]n1` as the entry.
Result: 151

Problem: Quick one: give measured melting point for `O=C(Oc1ccccc1C(=O)O)c1ccccc1O`
Result: 135

Problem: Fill in reported melting point for this entry: c1ccc2c(c1)CCCC2 [1,2,3,4-Tetrahydronaphthalene]
Result: -31
